Cited source for all entries: PubChem BioAssay (NCI)

# System: MALME-3M melanoma
# procedure details: NCI tumour cell line growth inhibition, 48 h
Quick list: TGI per entry.
Enter your answer as a number in µM; do not include the unit.

Example entries and their recorded answers appear below.
compound	units symbol	TGI
N#C/C(=C\c1c(-c2ccccc2)[nH]c2ccccc12)C(=O)c1ccc(Cl)cc1	µM	30.2
OB([O][Hg][c]1ccccc1)[O][Hg][c]1ccccc1	µM	0.788
CC[C@@H]1CN2CCC1C[C@@H]2C(O)c1ccnc2ccc(OCCN3CCN(CCOc4ccc5nccc(C(O)[C@@H]6C[C@@H]7CCN6C[C@@H]7CC)c5c4)CC3)cc12 (some centres undefined)	µM	54.1
CC(Cl)(/C=C/Cl)C(Cl)/C=C/C(Cl)(CCl)CBr (centres undefined)	µM	13.7
O=C1C2CC(Cl)C(SSC3CC4C(=O)N(SC(Cl)(Cl)C(Cl)Cl)C(=O)C4CC3Cl)CC2C(=O)N1SC(Cl)(Cl)C(Cl)Cl (centres undefined)	µM	2.86

Query: Which measured TGI value corresponds to CCOC(=O)c1cnc(SCc2ccc(Cl)c(Cl)c2)nc1N1CC1 ?
Result: 14.8
